assay: Cytotoxicity (MTT), A549 cells; details: human
Measurement name: CC50 at 72 h (µM)
Quick reminder: number only, in µM, skip the unit.

Worked cases, answers included:
>>> observed("CCOc1c2c(c(-c3ccc4c(c3)OCO4)c3cc(OC)c(OC)cc13)C(=O)OC2")
77.4
>>> observed("COc1cc2c(O)c3c(c(-c4ccc5c(c4)OCO5)c2cc1OC)C(=O)N(/N=C/c1ccc(Cl)cc1)C3")
78
>>> observed("COc1cc2c(O)c3c(c(-c4ccc5c(c4)OCO5)c2cc1OC)C(=O)N(/N=C/c1cccnc1)C3")
50.1

Ask: // lookup CC50 at 72 h for COc1cc2c(O)c3c(c(-c4ccc5c(c4)OCO5)c2cc1OC)C(=O)OC3 [Compound 2a, reference compound]
Result: 50.1

Ask: // lookup CC50 at 72 h for COc1cc2c(O)c3c(c(-c4ccc5c(c4)OCO5)c2cc1OC)C(=O)N(N)C3
Result: 28.7
